// read-out Ki, gathered for Serine protease 1 (Bos taurus, UniProt P00760) from published studies
measuredProperty: Ki (nM)

These solved cases illustrate the format of a correct answer.
molecule	target	Ki [nM]
N=C(N)c1ccc2c(ccn2CCCCn2ccc3cc(C(=N)N)ccc32)c1	Serine protease 1 (Bos taurus, UniProt P00760)	3200
CCc1cc(OCCc2ccc(CN)cc2)cc(OS(=O)(=O)c2cc(C)ccc2OC)c1	Serine protease 1 (Bos taurus, UniProt P00760)	6170
CN[C@H](Cc1ccccc1)C(=O)N1CCC[C@H]1C(=O)N[C@@H](CCCNC(=N)N)C(=O)c1nccs1	Serine protease 1 (Bos taurus, UniProt P00760)	1.6
N=C(N)c1cccc(C[C@H](NS(=O)(=O)c2ccc3ccccc3c2)C(=O)N2CCC[C@H]2C(=O)O)c1	Serine protease 1 (Bos taurus, UniProt P00760)	16000
Cc1cc(OCc2ccc(C(=N)N)cc2)cc(OS(=O)(=O)c2ccccc2Cl)c1	Serine protease 1 (Bos taurus, UniProt P00760)	2700
Cc1cc(OCCc2ccc(C(=N)N)c(O)c2)cc(OS(=O)(=O)c2cccc(C)c2)c1	Serine protease 1 (Bos taurus, UniProt P00760)	32400
CC1CCN(C(=O)[C@H](Cc2cccc(C(=N)N)c2)NS(=O)(=O)c2c(C(C)C)cc(C(C)C)cc2C(C)C)CC1	Serine protease 1 (Bos taurus, UniProt P00760)	690
CN[C@H](Cc1ccccc1)C(=O)N1CCC[C@H]1C(=O)N[C@@H](CCCN=C(N)N)C(=O)c1nccn1C	Serine protease 1 (Bos taurus, UniProt P00760)	4400
COC(=O)N[C@@H](C(=O)N1CCC[C@H]1C(=O)NCC#Cc1c[nH]cn1)C(c1ccccc1)c1ccccc1	Serine protease 1 (Bos taurus, UniProt P00760)	24000
Cc1nccn1-c1cccc(Oc2cc(C(=O)O)cc(Oc3cc(C(=N)N)ccc3O)n2)c1	Serine protease 1 (Bos taurus, UniProt P00760)	580

1 = CC(=N)N1CCC(N(CC(C)C(=O)O)c2ccc3c(c2)nc(C)n3Cc2ccc3ccc(C(=N)N)cc3c2)CC1 (stereo not given)
2 = N=C(N)c1ccc2ccc(CN(CCCc3ccccc3)C(=O)c3cccc4ccccc34)cc2c1
Req: Please indicate which has the smaller reported Ki: 1 , or 2 . Answer with the label corresponding to your selection.
Resp: 1
(1: 120 nM, 2: 925 nM)

I = Cc1c(F)c(Oc2cccc(CC(=O)N(C)C)c2)nc(Oc2cccc(C(=N)N)c2)c1F
II = N=C(N)NCCC[C@H](NC(=O)[C@@H]1CCN2CC[C@@](N)(Cc3ccccc3)CN12)C(=O)C(=O)NCCc1ccccc1
Req: Problem: Given the entries I and II , determine which has the lower reported Ki. Let me know the label of the one you choose.
Resp: II
(II: 0.027 nM, I: 4200 nM)

---

target: Serine protease 1 (Bos taurus)
Sequence (P00760 whole entry): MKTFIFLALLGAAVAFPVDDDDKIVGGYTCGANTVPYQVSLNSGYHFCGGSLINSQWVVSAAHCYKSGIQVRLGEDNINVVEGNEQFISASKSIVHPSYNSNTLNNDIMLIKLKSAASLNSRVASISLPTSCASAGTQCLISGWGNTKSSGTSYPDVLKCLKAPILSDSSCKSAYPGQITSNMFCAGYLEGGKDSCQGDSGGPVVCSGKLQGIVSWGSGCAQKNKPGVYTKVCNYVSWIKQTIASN
# literature pull: Serine protease 1 (Bos taurus) Ki
measuredProperty: Ki (µM)

These solved cases illustrate the format of a correct answer.
compound	target	Ki (µM)
N=C(N)c1cccc(Oc2ccc(C(N)=O)c(Oc3cccc(C(=N)N)c3)n2)c1	Serine protease 1 (Bos taurus)	1.2
N=C(N)c1cccc(C[C@H](NS(=O)(=O)c2ccc3ccccc3c2)C(=O)N2CCc3ccccc3C2)c1	Serine protease 1 (Bos taurus)	0.26
CCC(C)c1nc2cc(OC3CCN(C(C)=N)CC3)ccc2n1Cc1ccc2ccc(C(=N)N)cc2c1 (stereo not drawn)	Serine protease 1 (Bos taurus)	0.013

A = [H]/N=C(\N)N1CCC[C@@H](CNC(=O)C[C@H](NS(=O)(=O)c2ccc3ccccc3c2)C(=O)N(CC(=O)O)Cc2ccccc2)C1
B = N=C(N)c1cccc(CN2CC[C@H](NS(=O)(=O)c3ccc4ccc(Cl)cc4c3)C2=O)c1
C = COc1cc(C)c(S(=O)(=O)N[C@@H](Cc2cccc(C(=N)N)c2)C(=O)N2CCC(C)CC2)c(C)c1C
Req: Could you please order the items by Ki, going from the lowest number to the highest? The labels, placed in the requested order, form the answer.
Resp: A, C, B

P = CS(=O)(=O)N[C@@H](C(=O)N1CCC[C@H]1C(=O)NCc1ccc(C(=N)NN)cc1)C(c1ccccc1)c1ccccc1
Q = CCOC(=O)CCC(=O)N(C/C=C/c1cccc(C(=N)N)c1)c1ccc(OC2CCN(C(C)=N)CC2)c(C(F)(F)F)c1
Req: Please state the entry with greater Ki among P and Q . Could you answer with the label of the item you picked?
Resp: P
